Tested on: 966289-007-R4-J1-PDC complex spheroid viability
assay_info: Anticancer human tumor 966289-007-R4-J1-PDC patient-derived pancreatic adenocarcinoma cell line growth inhibition [GQUAD]
reported_conditions: second compound 0.316 µM; first compound 10 µM; active compounds read low
Please note: viability, T/C exactly at 6% is f. Only values below 6% get t.

Example entries begin here.
Query string: Is it true that viability, T/C reported for CC(C)(O)C1CCC(Nc2ccc3ncc(-c4cccc(C(F)(F)F)c4)n3n2)CC1 (centres undefined) + Cc1[nH]c2ccc(F)cc2c1-c1nc2c3cccnc3c3ncccc3c2[nH]1 is less than 6%?
Result string: f

Query string: Is it true that viability, T/C reported for COc1cccc2c1C(=O)c1c(O)c3c(c(O)c1C2=O)CC(O)(C(=O)CO)CC3OC1CC(N)C(O)C(C)O1 (centres undefined) + CN(C)c1ccc(Nc2c3ccc(NC(=O)CCN4CCCC4)cc3nc3cc(NC(=O)CCN4CCCC4)ccc23)cc1 is less than 6%?
Result string: t

Query string: Is it true that viability, T/C reported for COc1ccc([C@@H](O)c2cc(-c3ncnc4cc(N5CCOCC5)ccc34)c(F)cc2Cl)nn1 + Cc1[nH]c2ccc(F)cc2c1-c1nc2c3cccnc3c3ncccc3c2[nH]1 is less than 6%?
Result string: f

Query string: Is it true that viability, T/C reported for C=CC(=O)N1CCN(c2nc(=O)n(-c3c(C)ccnc3C(C)C)c3nc(-c4c(O)cccc4F)c(F)cc23)C(C)C1 (centres undefined) + Cc1cnc(CNC(=O)c2c(=O)c3ccc(N4CCCN(C)CC4)nc3n3c2sc2ccccc23)cn1 is less than 6%?
Result string: f

Query string: Is it true that viability, T/C reported for O=C(NO)c1cnc(N2CCN(S(=O)(=O)c3ccc4ccccc4c3)CC2)nc1 + Cc1[nH]c2ccc(F)cc2c1-c1nc2c3cccnc3c3ncccc3c2[nH]1 is less than 6%?
Result string: t

Further cases:
Query string: Is it true that viability, T/C reported for Nc1ccn(C2OC(CO)C(O)C2(F)F)c(=O)n1 (centres undefined) + Cc1cnc(CNC(=O)c2c(=O)c3ccc(N4CCCN(C)CC4)nc3n3c2sc2ccccc23)cn1 is less than 6%?
Result string: t

Query string: Is it true that viability, T/C reported for O=c1[nH]cc(F)c(=O)[nH]1 + CN(C)c1ccc(Nc2c3ccc(NC(=O)CCN4CCCC4)cc3nc3cc(NC(=O)CCN4CCCC4)ccc23)cc1 is less than 6%?
Result string: f

Query string: Is it true that viability, T/C reported for Nc1ccn(C2OC(CO)C(O)C2(F)F)c(=O)n1 (centres undefined) + Cc1[nH]c2ccc(F)cc2c1-c1nc2c3cccnc3c3ncccc3c2[nH]1 is less than 6%?
Result string: t

###

Reported viability, T/C values for a set of compounds
Test system: 966289-007-R4-J1-PDC complex spheroid viability
assay_info: Anticancer human tumor 966289-007-R4-J1-PDC cell line growth inhibition [GQUAD];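 also: spheroids exposed to the agents for seven days before readout; percent viability relative to DMSO vehicle control wells taken as 100%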
reported_conditions: second compound 10 µM; first compound 3.16 µM; active compounds read low
Report the figure in % without appending any unit label.

The cases that follow already have their viability, T/C on record.
Assay 966289-007-R4-J1-PDC complex spheroid viability, sample C=CCn1c(=O)c2cnc(Nc3ccc(N4CCN(C)CC4)cc3)nc2n1-c1cccc(C(C)(C)O)n1 + CN(C)c1ccc(Nc2c3ccc(NC(=O)CCN4CCCC4)cc3nc3cc(NC(=O)CCN4CCCC4)ccc23)cc1 , viability, T/C read: 3.41

Assay 966289-007-R4-J1-PDC complex spheroid viability, sample C=CC(=O)N1CCN(c2nc(=O)n(-c3c(C)ccnc3C(C)C)c3nc(-c4c(O)cccc4F)c(F)cc23)C(C)C1 (stereo unspecified) + Cc1[nH]c2ccc(F)cc2c1-c1nc2c3cccnc3c3ncccc3c2[nH]1 , viability, T/C read: 94.4

Assay 966289-007-R4-J1-PDC complex spheroid viability, sample CC(C)(O)C1CCC(Nc2ccc3ncc(-c4cccc(C(F)(F)F)c4)n3n2)CC1 (stereo unspecified) + CN(C)c1ccc(Nc2c3ccc(NC(=O)CCN4CCCC4)cc3nc3cc(NC(=O)CCN4CCCC4)ccc23)cc1 , viability, T/C read: 0.21

Assay 966289-007-R4-J1-PDC complex spheroid viability, sample C=CCn1c(=O)c2cnc(Nc3ccc(N4CCN(C)CC4)cc3)nc2n1-c1cccc(C(C)(C)O)n1 + Cc1[nH]c2ccc(F)cc2c1-c1nc2c3cccnc3c3ncccc3c2[nH]1 , viability, T/C read: 4.68

Next, consider the following compound.
Assay 966289-007-R4-J1-PDC complex spheroid viability, sample CC1COCCN1c1cc(C2(S(C)(=N)=O)CC2)nc(-c2ccnc3[nH]ccc23)n1 (stereo unspecified) + CN(C)c1ccc(Nc2c3ccc(NC(=O)CCN4CCCC4)cc3nc3cc(NC(=O)CCN4CCCC4)ccc23)cc1 , viability, T/C read: 20.9

###

Tested on: 966289-007-R4-J1-PDC complex spheroid viability
assay_info: Anticancer human tumor 966289-007-R4-J1-PDC cell line growth inhibition [GQUAD];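 also: spheroids exposed to the agents for seven days before readout; percent viability relative to DMSO vehicle control wells taken as 100%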
reported_conditions: second compound 10 µM; first compound 0.1 µM; active compounds read low
Reported viability, T/C values for a set of compounds
Report the figure in % without appending any unit label.

The cases that follow already have their viability, T/C on record.
Form field viability, T/C, entry O=c1[nH]cc(F)c(=O)[nH]1 + CN(C)c1ccc(Nc2c3ccc(NC(=O)CCN4CCCC4)cc3nc3cc(NC(=O)CCN4CCCC4)ccc23)cc1 : 103

Form field viability, T/C, entry COc1ncnc(C2CC2)c1-c1ncc2cnn(Cc3ccc(-c4nc(C(F)(F)F)cn4C(C)C)cc3)c2n1 + CN(C)c1ccc(Nc2c3ccc(NC(=O)CCN4CCCC4)cc3nc3cc(NC(=O)CCN4CCCC4)ccc23)cc1 : 103

Form field viability, T/C, entry C=CC(=O)N1CCN(c2nc(=O)n(-c3c(C)ccnc3C(C)C)c3nc(-c4c(O)cccc4F)c(F)cc23)C(C)C1 (stereo not given) + Cc1cnc(CNC(=O)c2c(=O)c3ccc(N4CCCN(C)CC4)nc3n3c2sc2ccccc23)cn1 : 0.14

Form field viability, T/C, entry Nc1ccn(C2OC(CO)C(O)C2(F)F)c(=O)n1 (stereo not given) + CN(C)c1ccc(Nc2c3ccc(NC(=O)CCN4CCCC4)cc3nc3cc(NC(=O)CCN4CCCC4)ccc23)cc1 : 1.02

Next, consider the following compound.
Form field viability, T/C, entry COc1cccc2c1C(=O)c1c(O)c3c(c(O)c1C2=O)CC(O)(C(=O)CO)CC3OC1CC(N)C(O)C(C)O1 (stereo not given) + Cc1cnc(CNC(=O)c2c(=O)c3ccc(N4CCCN(C)CC4)nc3n3c2sc2ccccc23)cn1 : 0.08

###

Test system: 966289-007-R4-J1-PDC complex spheroid viability
assay_info: Anticancer human tumor 966289-007-R4-J1-PDC cell line growth inhibition [GQUAD];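 also: spheroids exposed to the agents for seven days before readout; percent viability relative to DMSO vehicle control wells taken as 100%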
reported_conditions: second compound 1 µM; first compound 0.0316 µM; active compounds read low
Please note: viability, T/C exactly at 90% is n. Only values below 90% get y.

Query string: Is it true that viability, T/C reported for CCc1c2c(nc3ccc(O)cc13)-c1cc3c(c(=O)n1C2)COC(=O)[C@]3(O)CC + Cc1cnc(CNC(=O)c2c(=O)c3ccc(N4CCCN(C)CC4)nc3n3c2sc2ccccc23)cn1 is less than 90%?
Result string: y

Further cases:
Query string: Is it true that viability, T/C reported for CCCS(=O)(=O)Nc1ccc(F)c(C(=O)c2c[nH]c3ncc(-c4ccc(Cl)cc4)cc23)c1F + Cc1[nH]c2ccc(F)cc2c1-c1nc2c3cccnc3c3ncccc3c2[nH]1 is less than 90%?
Result string: n

Query string: Is it true that viability, T/C reported for Cc1cccc(N(C)C(=O)C2C(O)CCN2c2nc(C)cc(C(F)(F)F)c2C#N)c1 (stereo not given) + Cc1[nH]c2ccc(F)cc2c1-c1nc2c3cccnc3c3ncccc3c2[nH]1 is less than 90%?
Result string: n

Query string: Is it true that viability, T/C reported for CC1COCCN1c1cc(C2(O)CC3CCC(C2)O3)c2cnn(-c3ccn[nH]3)c2n1 (stereo not given) + Cc1[nH]c2ccc(F)cc2c1-c1nc2c3cccnc3c3ncccc3c2[nH]1 is less than 90%?
Result string: n

Query string: Is it true that viability, T/C reported for O=c1[nH]cc(F)c(=O)[nH]1 + CN(C)c1ccc(Nc2c3ccc(NC(=O)CCN4CCCC4)cc3nc3cc(NC(=O)CCN4CCCC4)ccc23)cc1 is less than 90%?
Result string: n

Query string: Is it true that viability, T/C reported for C=CCn1c(=O)c2cnc(Nc3ccc(N4CCN(C)CC4)cc3)nc2n1-c1cccc(C(C)(C)O)n1 + Cc1[nH]c2ccc(F)cc2c1-c1nc2c3cccnc3c3ncccc3c2[nH]1 is less than 90%?
Result string: n

Query string: Is it true that viability, T/C reported for COc1cccc2c1C(=O)c1c(O)c3c(c(O)c1C2=O)CC(O)(C(=O)CO)CC3OC1CC(N)C(O)C(C)O1 (stereo not given) + Cc1[nH]c2ccc(F)cc2c1-c1nc2c3cccnc3c3ncccc3c2[nH]1 is less than 90%?
Result string: n
